- test.description: yeast display, Sf9 membrane polyspecificity reagent, FACS + sequencing; frameworks hold sequencing errors
endpoint.label: polyreactivity (PSR sort gate)

// query Name the reported polyreactivity (PSR sort gate) value associated with the sequence QDQHVESVGGLVQAGGSLRLSCAASGSIIPLYAMGWYRQAPGKERELVAAISSRGGSTYYADSVKGRFSISRDNAKNTVYLQMKSLKPEDTAVYYCAVDTPSPSRGPRFNYWGQGTQVTVSS
// result high polyreactivity

// query What value of measured polyreactivity (PSR sort gate) is listed for QVQLVESGGGLVQAGGSLRLSCAASGSTLYFYAMGWYRQAPGKERELVASISGTGGRTDYADSVKGRFTISRDNAKNTVYLQMNSLKPEDTAVYYCAARGLVYQSNRYYGYRDYYYWGQGTQVTVSS ?
// result high polyreactivity

// query Please give the measured polyreactivity (PSR sort gate) for this sequence: QVQLVESGGGLVQAGGSLRLSCAASGFIFRRYTMGWYRQAPGKERELVATITRSVNTDYADSVKGRFTISRDNAKNTVYLQMNSLKPEDTAVYYCAARKYYYFPVAYDYWGQGTQVTVSS
// result high polyreactivity

----------
- test.description: yeast display, Sf9 membrane polyspecificity reagent, FACS + sequencing; frameworks hold sequencing errors
endpoint.label: polyreactivity (PSR sort gate)

// query # polyreactivity (PSR sort gate) lookup, item QVQLVESGGGLVQAGGSLRLSCAASGSILRYYTMGWYRQAPGKERELVASIRATGGNTYYADSVKGRFTISRDNAKNTVYLQMNSLKPEDTAVYYCAARYRKKYYWGQGTQVTVSS
// result high polyreactivity

// query Item under review: QVQLVESGGGLVQAGGSLRLSCAASGFIFETYAMGWYRQEPGKERELVAAISRGASTYYADSVKGRFTISRDNAKNTVYLQMNSLKPEDTAVYYCAAKRLSWHRYGYWGQGTQVTVSS . Reported polyreactivity (PSR sort gate)?
// result low polyreactivity

// query Look at this sequence and give its reported polyreactivity (PSR sort gate). QVQLVESGGGLVQAGGSLRLSCAASGRIFYPYAMGWYRQAPGKERELVAAITSGGSTYYADSVKGRFTISRDNAKNTVYFQMNSLKPEDTAVYYCAADVVDLYLLDYWGQGTQVTVSS
// result low polyreactivity

// query Could you share which polyreactivity (PSR sort gate) value was measured for QVQLVESGGGLVQAGGSLRLSCAASGSTISFYAMGWYRQAPGKERELVAAISFRGGRTYYADSVKGRFTISRDNAKNTVYLQMYSLKPEDTAVYYCAAVWYYGHARYDYWGQGTQVTVSS ?
// result high polyreactivity

Others:
// query I have this sequence here, QVQLLESGGGLVQAGGSLRLSCAASGRIFGVNAMGWYRQAPGKERELVAAISAGGGNTYYADSVKGRFTISRDNAKNSVYLQMNSLKPEDTAVYYCNVQRSLRMDYWGQGTQVTVSS , and I need its recorded polyreactivity (PSR sort gate).
// result high polyreactivity

----------
- test.description: yeast display, Sf9 membrane polyspecificity reagent, FACS + sequencing; frameworks hold sequencing errors
endpoint.label: polyreactivity (PSR sort gate)

# count of solved cases: 4
// query # query: polyreactivity (PSR sort gate) of entry QVQLVESGGGLVQAGGSLRLSCASSGRIFDQYAMGWYRQAPGKERELVAAISSDDGSTYYADSVKGRFTISRDNAKNTVYLQMNSLKPEDTAVYYCAADAWRYVDYDYWGQGTQVTVSS
// result low polyreactivity

// query For the sequence QVQLVESGGGLVQAGGSLRLSCAASGITYSGNAMRWYRQAPAKERELVAAISGRGGSTYYADSVKGRFTISRDNAKNTVYLLMNSLKPDDTAVYYCNADVYPYKLALPAGMGYWGQGTQVTVSS , what polyreactivity (PSR sort gate) is on record?
// result high polyreactivity

// query What value of measured polyreactivity (PSR sort gate) is listed for QVQLVESGGGLVQAGGSLRLSCAASGSTFYLYAMGWYRQAPGKEREFVAAISWSGGRTYYADSVKGRFTISRDNAKNTVYLQMNSLKPEYTAVYYCAARRRYTWQYTRYDMGYWGQGTQVTVSS ?
// result low polyreactivity

// query Which polyreactivity (PSR sort gate) reading was recorded for the sequence QVQLVESGGGLVQAGGSLRLSCAASGSIFKLNAMGWYRQAPGKERELVAAISRGGRTYYADSVKGRFTISRDNAKNTVYLQMNSLKPEDTAVYYCAADASSQIWYYPRDDYWGQGTNVTVSS ?
// result low polyreactivity

As a next step, examine the sequence that follows.
// query Would you mind telling me what polyreactivity (PSR sort gate) value was observed for QVHLVESGGGLVQAGGSLRLSCAASGGTIAFNGMGWYRQAPGKDRELVAAITWRSGSTYYADSVKGRFTISRDNPKNPVYLQMNSLKPDDTAVYYCNAARAVYTQKRFDSWGQGTQVTVSS ?
// result high polyreactivity

----------
- test.description: yeast display, Sf9 membrane polyspecificity reagent, FACS + sequencing; frameworks hold sequencing errors
endpoint.label: polyreactivity (PSR sort gate)

// query Consider the sequence shown here: QVQLVESGGGLVQAGGSLRLSCAASGSIFTYYAMGWYRQAPGKERELVAAIDFSGASTSYADSVKGRFTISRDNAKNTVYLQMNSLKPEDTAVYYCAAVLYWYPPYYYWGQGTQVTVSS What is its recorded polyreactivity (PSR sort gate)?
// result low polyreactivity

// query // lookup polyreactivity (PSR sort gate) for QVQLVESGGGLVQAGGSLRLSCAASGSIFAGNAMGWYRQAPGKERELVAAISRRGGSTYYADSVKGRFTISRDNAKNTVYLQMNSLKPEDTAVYYCAAANWQRYYYWGQGTQVTVSS
// result high polyreactivity

// query Fill in the blank: the reported polyreactivity (PSR sort gate) of QVQLVESGGGLVQAGVSLRLSCAASGSIFQSYDMGWYRQEPGKEREVVAAISWSGSTTYYADSVKGRFTLSRDNAKNTVYLQMNSLKPEDTAVYYCAVDSNPPDWWAVIYGFWGQGTQVTVSS is ____.
// result low polyreactivity

// query Form field: reported polyreactivity (PSR sort gate) of QVQLVESGGGLVQAGGSLRLSCAASGSTFYLYARGWFSQAPGKVRELGAAIRTSGGSTYYADSGKGRFTISRDTAKNTVYLQMNSLKPEDTAVYSCTAAWPYNSVEYWGQGTQVTVSS
// result low polyreactivity

// moving on: another record for polyreactivity (PSR sort gate)
// query Form field: reported polyreactivity (PSR sort gate) of QVQLVESGGGLVQAGGSLRLSCAASGRIFASYAMGWYRQAPGKERELVASISKSVGRTYYSDSVKGRFTISRDNAKNTVYLQMNSLKPEDTAVYDCAAISYFPLRTRYERWFYYWGQGTQVTVSS
// result high polyreactivity

----------
- test.description: yeast display, Sf9 membrane polyspecificity reagent, FACS + sequencing; frameworks hold sequencing errors
endpoint.label: polyreactivity (PSR sort gate)

Sample answers from the record:
// query Return reported polyreactivity (PSR sort gate); argument: QVQLVESGGGLVQAGGSLRLSCAASGSTFQFYAMGWYRQAPGKERELVAAIRSSDDSTYYADSVKGRFTSSRDNAKNTVYLQMNSLKPEDTAVYYCAAVQDYYGVWYDYWGQGTQVTVSS
// result high polyreactivity

// query Would you mind telling me what polyreactivity (PSR sort gate) value was observed for QVQLVESGGGLVQAGGSLRISCAASGSTLYRNAMGWYRQAPGKEMELVAAISSSGGTTFYADSVKGRFTISRDNAKNTVYLQMNSLKPEDTAVYYCNRNARKLRTVHSSVFGLDYWGQGTQVTVSS ?
// result low polyreactivity

// query Recorded polyreactivity (PSR sort gate) of QVQLVESGGGLVQAGASLRLSCAASGRIFGRNAMGWYRQAPGKERELVAAISSGSGSTYYADSVKGRFTISRDNAKHTVYLQLNSLIPEDTAVYYCAATVSTYLAWRGYWGQGTQVTVSS , please.
// result high polyreactivity

// query Can you share its polyreactivity (PSR sort gate)? I mean this sequence: QVQLVESGGGLVQAGGSLRLSCAASGFTFTDYAKGWYRQAPGKERELVAAITKGGGRTYYADSVKWRFTISRDNAKNSVYLQMNSQKPEDTAVYYCNARYQVPYGYWGQGTQVTVSS
// result low polyreactivity

// query Can you look up the measured polyreactivity (PSR sort gate) of QVQLVESGGGLVQAGGSLRLSCAASGRTFARYAIGWSRQAPGKERELVAAITRRGGSTYYADSVKGRFTLSRDNAKNTVYLQMNSLKPEDTAVYYCAAHYPNFGIGAYEYWGQGTQVTVSS for me?
// result high polyreactivity

// query I have this sequence here, QVQLVESGGGLVQAGGSLRLSCAASGYTFPLYAMGLYRQAPGKERELVADINIGGASTYYADSVKGRFTISRDNAKNTVYLQMNSLKPEDTAVYYCAKEYYDGYFPTFDYDYWGQGTQVTVSS , and I need its recorded polyreactivity (PSR sort gate).
// result low polyreactivity

// query Reported polyreactivity (PSR sort gate), sequence QVQLVESGGGLVQAGGSLRLSCAASGRTFWRNAMGWYRQAPGKERELVAAINSGGRTYYADSVKGRFTISRDNAKNTVYLQMNSLKPEDTAVYYCAVYVHRFLDGRVRSYRGDYWGQGTQVTVSW : ____
// result high polyreactivity

// query What polyreactivity (PSR sort gate) value was documented for this sequence, QVQLVESGGGLVQAGGSLRLSCADSARIFSFNTMGWYRQAPGKETELVAAISYRGRTYYADSVKGRFTISRDNAKKTVYLQMNSLKPEDTAVYYCIAVYGYWYGSWGQGTQVTVSS ?
// result high polyreactivity

More entries:
// query So what does the record say about polyreactivity (PSR sort gate) for QVQLVESGGGLVQAGGSLRLSCAAAGSIFRGYAMGWYRQEPEKERELVADISRRGGSTYYADSVKGRFTISRDNAKNTVYLQMNSLKPEDTAVYYCAKDGTGAGTYDYWGQGTQVTVSS ?
// result low polyreactivity

// query Consider the sequence shown here: QVQLQESGGGLVQAGGSLRLSCAASGYIPLAQTIGSYRQAPGKEREFVASIALGSSTYYTDSVKGSFTISRDNAKTTVYLQMNSLKPEDTAVYYCAARVGACYAHDYWGQGTQVTVSS What is its recorded polyreactivity (PSR sort gate)?
// result low polyreactivity

// query For the sequence shown here, QVQLVESGGGLVQAGGSLRLSCAASGSIFGFNAMGWYRQAPGKERELVAAISSGGITNYADSVKGRFTISRDNAKNTVSLQMNSLKPEVTAVYYCAAASESNWSFNYWGQGTQVTVSS , give the reported polyreactivity (PSR sort gate).
// result low polyreactivity

// query Given the sequence QVQLVESGGGLVQAGGSLRLSCAASGSIIQGYVMGWYRQAPGKERELDAAISNSGSSTYYADSVKGRFTISRDNAKNTVYLQMNSLKPEDTAVYYCAVLRSYRGSKYGYWGQGTQVTVSS , what is its reported polyreactivity (PSR sort gate)?
// result high polyreactivity

// query polyreactivity (PSR sort gate) lookup needed for AVQLEESRGGLVQAGGSLRLSCAASGFIFTVNAMGWSRQAPGKERELVAAITQSGGNTSYADSVKGRFTFSRDNAKNTFYLQMNSLKPEDTAVYYCAADDVDVEHPASWDDYDSWGQGTQVTVSS , thanks.
// result low polyreactivity

// query Which polyreactivity (PSR sort gate) value belongs to QVQLVESGGGLVQAGGSLRLSFAASGSIFYRNAMGWYRQAPGKERELVASISASGGRTYYADSVKGRFTISRDNGKNTVYLQMNSVKPEDTAFYYCNKVSPVAYWYSWGINFDYWGQGTQVTVSS ?
// result high polyreactivity

Every entry's value here was drawn from the nanobody polyreactivity screen of Harvey et al. (2022).
